Source: patent US12565488B2

# Test system: Influenza type A (strain A/PR/8/34, ATCC VR-95)
# PROTOCOL_NOTES: Influenza antiviral assay: inhibition of virus-induced cytopathic effects (CPE) in MDCK cells, XTT dye reduction
# Assay type: cell-based
# TEST_SETTINGS: Influenza A virus, H1N1 / PR/8, MDCK, 96 h, Influenza A (H1N1) replication in MDCK cells, CPE reduction by XTT at 4 days post-infection; read-out: Influenza H1N1 affinity, EC50
pEC50: −log10 of the molar value.
Some compounds, each annotated with its measured pEC50.

Tested system Influenza type A (strain A/PR/8/34, ATCC VR-95); pEC50 recorded for O=C(O)c1c(O)c(=O)ccn1NC(c1ccccc1)c1ccc2ccccc2c1 (stereo not shown) was 4.00 to 5.00

Tested system Influenza type A (strain A/PR/8/34, ATCC VR-95); pEC50 recorded for O=C(O)c1c(O)c(=O)ccn1NC1c2ccccc2S(=O)(=O)Cc2c1ccc(F)c2F (stereo not shown) was 4.00 to 5.00

Tested system Influenza type A (strain A/PR/8/34, ATCC VR-95); pEC50 recorded for O=C(Nc1ccc(C(F)(F)F)cc1)c1c(O)c(=O)ccn1NC1c2ccccc2COc2ccccc21 (stereo not shown) was < 4.00

# evaluate next
Tested system Influenza type A (strain A/PR/8/34, ATCC VR-95); pEC50 recorded for O=C(O)c1c(O)c(=O)ccn1NC1c2ccccc2OCc2c(F)cccc21 (stereo not shown) was 4.00 to 5.00

---

# Tested on: Influenza type A (strain A/PR/8/34, ATCC VR-95)
# PROTOCOL_NOTES: Influenza antiviral assay: inhibition of virus-induced cytopathic effects (CPE) in MDCK cells, XTT dye reduction
# Type: cell-based
# TEST_SETTINGS: Influenza A virus, H1N1 / PR/8, MDCK, 96 h, Influenza A (H1N1) replication in MDCK cells, CPE reduction by XTT at 4 days post-infection; read-out: Influenza H1N1 affinity, EC50
pEC50: −log10 of the molar value.
ENDPOINT: pEC50

// below: answered molecules
# pEC50 of O=C(Nc1cccc(C(F)(F)F)c1)c1c(O)c(=O)ccn1CC1c2ccccc2COc2ccccc21 (stereo not shown) = < 4.00

# pEC50 of O=C(O)c1c(O)c(=O)ccn1NC1c2ccc(C(F)(F)F)cc2COc2ccccc21 (stereo not shown) = < 4.00

# pEC50 of O=C(Nc1ccc(-c2ccccc2)cc1)c1c(O)c(=O)ccn1NC1c2ccccc2COc2ccccc21 (stereo not shown) = < 4.00

# pEC50 of O=C(NCc1ccc2ccccc2c1)c1c(O)c(=O)ccn1NC1c2ccccc2COc2ccccc21 (stereo not shown) = 5.00 to 6.00

---
# pEC50 of O=C(NCc1ccc(-c2ccccc2)cc1)c1c(O)c(=O)ccn1NC1c2ccccc2COc2ccccc21 (stereo not shown) = 5.00 to 6.00

# pEC50 of CN(C1c2ccccc2COc2ccccc21)n1ccc(=O)c(O)c1 (stereo not shown) = < 4.00

# pEC50 of CNC(=O)c1c(O)c(=O)ccn1NC1c2ccccc2CSc2cc(Cl)c(Cl)cc21 (stereo not shown) = < 4.00

# pEC50 of CNC(=O)c1c(O)c(=O)ccn1NC1CCCN(Cc2ccccc2)c2ccccc21 (stereo not shown) = < 4.00

# pEC50 of O=C(O)c1cn(NC2c3ccccc3SCc3c2ccc(F)c3F)cc(O)c1=O (stereo not shown) = 5.00 to 6.00

# pEC50 of O=C(NCc1ccc(C(F)(F)F)cc1)c1c(O)c(=O)ccn1NC1c2ccccc2COc2ccccc21 (stereo not shown) = < 4.00

---

Some molecules, each annotated with its measured EC50.
# Tested on: Influenza type A (strain A/PR/8/34, ATCC VR-95)
# PROTOCOL_NOTES: Influenza antiviral assay: inhibition of virus-induced cytopathic effects (CPE) in MDCK cells, XTT dye reduction
# Format: cell-based
# TEST_SETTINGS: Influenza A virus, H1N1 / PR/8, MDCK, 96 h, Influenza A (H1N1) replication in MDCK cells, CPE reduction by XTT at 4 days post-infection; read-out: Influenza H1N1 affinity, EC50

// below: answered molecules
# EC50 of O=C(NCc1ccc(O)cc1)c1c(O)c(=O)ccn1NC1c2ccccc2COc2ccccc21 (stereo not drawn) = > 100 µM

# EC50 of O=c1ccn(N(Cc2ccccc2)C2c3ccccc3COc3ccccc32)cc1O (stereo not drawn) = > 100 µM

# EC50 of CN(Cc1ccccc1)C(=O)c1c(O)c(=O)ccn1CC1c2ccccc2COc2ccccc21 (stereo not drawn) = > 100 µM

# EC50 of O=C(Nc1cccc(C(F)(F)F)c1)c1c(O)c(=O)ccn1NC1c2ccccc2COc2ccccc21 (stereo not drawn) = 1 to 10 µM

# EC50 of CNC(=O)c1c(O)c(=O)ccn1NC1c2ccccc2COc2cc(Cl)c(Cl)cc21 (stereo not drawn) = > 100 µM

---
# EC50 of O=c1ccn(NC2c3ccccc3COc3ccccc32)cc1O (stereo not drawn) = > 100 µM

# EC50 of O=C(O)c1c(O)c(=O)ccn1NC1c2cc(OC(F)(F)F)ccc2SCc2c1ccc(F)c2F (stereo not drawn) = 10 to 100 µM

# EC50 of CNC(=O)c1c(O)c(=O)ccn1NC1CCCN(C)c2ccccc21 (stereo not drawn) = > 100 µM

# EC50 of O=C(O)c1c(O)c(=O)ccn1NC(c1cccc2ccccc12)c1cccc2ccccc12 = > 100 µM

---

# Test system: Influenza type A (strain A/PR/8/34, ATCC VR-95)
# PROTOCOL_NOTES: Influenza antiviral assay: inhibition of virus-induced cytopathic effects (CPE) in MDCK cells, XTT dye reduction
# Type: cell-based
# TEST_SETTINGS: Influenza A virus, H1N1 / PR/8, MDCK, 96 h, Influenza A (H1N1) replication in MDCK cells, CPE reduction by XTT at 4 days post-infection; read-out: Influenza H1N1 affinity, EC50
pEC50: −log10 of the molar value.
Some compounds, each annotated with its measured pEC50.

# pEC50 of O=C(O)c1cn(NC2c3ccccc3COc3ccccc32)c(C(=O)O)c(O)c1=O (stereo not shown) = 4.00 to 5.00

# pEC50 of O=C(O)c1c(O)c(=O)ccn1NC1c2cc(Cl)c(Cl)cc2CSc2ccccc21 (stereo not shown) = 4.00 to 5.00

# pEC50 of O=C(O)c1c(O)c(=O)ccn1NC1c2ccccc2SCc2c1ccc(Br)c2Cl (stereo not shown) = 5.00 to 6.00

# pEC50 of CNC(=O)c1c(O)c(=O)ccn1CC(c1ccccc1)c1ccccc1 = < 4.00

# pEC50 of CC(C)NC(=O)c1c(O)c(=O)ccn1N(C)C1c2ccccc2COc2ccccc21 (stereo not shown) = < 4.00

---
# pEC50 of O=C(O)c1c(O)c(=O)ccn1NC1c2ccccc2OCc2c1ccc(F)c2F (stereo not shown) = 4.00 to 5.00

# pEC50 of O=C(NCc1cccc2ccccc12)c1c(O)c(=O)ccn1NC1c2ccccc2COc2ccccc21 (stereo not shown) = < 4.00
